Values from ChEMBL document CHEMBL1138529

EXPERIMENT SUMMARY: Permeability from apical to basolateral side in human Caco-2 cells
Type: ADME, cell-based
RECORDED CONDITIONS: read-out: permeability
RESULT TYPE: Papp A→B (×10⁻⁶ cm/s)
Answer format: numeric, ×10⁻⁶ cm/s implied, no suffix.

// lookup Papp A→B for CC[C@]1(O)C[C@@H]2CN(CCc3c([nH]c4ccccc34)[C@@](C(=O)OC)(c3cc4c(cc3OC)N(C)[C@H]3[C@@](O)(C(=O)OC)[C@H](OC(C)=O)[C@]5(CC)C=CCN6CC[C@]43[C@@H]65)C2)C1 0.1

Then this compound: Cn1cnc(S(=O)(=O)N(Cc2ccccn2)C2Cc3cc(C#N)ccc3N(Cc3cncn3C)C2)c1 (configuration not stated) 0.2

Try this compound next: Cn1cncc1CN1CC(N(CC2CCN(C(=O)c3ccco3)CC2)S(=O)(=O)c2ccccn2)Cc2cc(C#N)ccc21 (configuration not stated) 0.5

Check CCOC(=O)N1CCC(CN(C2Cc3cc(C#N)ccc3N(Cc3cncn3C)C2)S(=O)(=O)c2ccccn2)CC1 (configuration not stated) too. 2.6

Queued: Cn1cncc1CN1CC(N(CC2CCN(S(=O)(=O)c3ccccc3)CC2)S(=O)(=O)c2ccccn2)Cc2cc(C#N)ccc21 (configuration not stated) 0.1

Please do the same for Cn1cncc1CN1CC(N(CC2CCN(C(=O)C3CCCC3)CC2)S(=O)(=O)c2ccccn2)Cc2cc(C#N)ccc21 (configuration not stated) as well. 0.5

Then what about the compound Cn1cncc1CN1CC(N(CC2CCN(C(=O)CC(C)(C)C)CC2)S(=O)(=O)c2ccccn2)Cc2cc(C#N)ccc21 (configuration not stated) ? 0.5
